The measured values listed here are drawn from patent US20230044278A1.

# TESTED TARGET: T1, recombinant cynomolgus monkey (Macaca fascicularis) transferrin receptor 1 (cynomolgus monkey (Macaca fascicularis), UniProt Q5RDH6 87-760 (Pongo abelii entry), limits assumed)
# T1 construct: also called cTfR1; cyno TfR1
# T1 chain: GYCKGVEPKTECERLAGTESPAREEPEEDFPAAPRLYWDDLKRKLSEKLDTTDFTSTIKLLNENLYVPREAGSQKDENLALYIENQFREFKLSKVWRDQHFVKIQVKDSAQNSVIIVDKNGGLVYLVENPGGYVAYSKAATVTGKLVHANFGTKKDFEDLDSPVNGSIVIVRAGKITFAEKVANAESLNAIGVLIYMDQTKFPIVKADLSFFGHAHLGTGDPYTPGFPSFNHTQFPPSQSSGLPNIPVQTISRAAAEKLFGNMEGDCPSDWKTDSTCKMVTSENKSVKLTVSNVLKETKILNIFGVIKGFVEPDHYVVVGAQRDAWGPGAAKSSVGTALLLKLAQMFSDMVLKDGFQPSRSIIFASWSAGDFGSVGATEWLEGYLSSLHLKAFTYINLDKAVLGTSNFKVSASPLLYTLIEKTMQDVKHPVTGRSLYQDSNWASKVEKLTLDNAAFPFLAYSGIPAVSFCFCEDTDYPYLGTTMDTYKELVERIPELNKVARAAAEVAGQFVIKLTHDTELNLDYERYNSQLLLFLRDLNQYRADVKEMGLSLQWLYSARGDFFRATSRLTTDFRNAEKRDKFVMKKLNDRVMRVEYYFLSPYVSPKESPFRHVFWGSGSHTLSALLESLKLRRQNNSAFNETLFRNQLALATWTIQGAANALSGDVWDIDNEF
# ASSAY TEXT: ELISA, thermal stability d9 (after 9 days at high temperature); printed as 'Binding affinity cyno TfR1 d9 (nM)'
MEASURED METRIC: pEC50
Would you please state pEC50, meaning minus log10 of the concentration in mol/L, as a bare number?

{"BINDER": "humanized anti-TfR Fab 5H12 (VH5-C33D/Vk4) (Fab, V domains shown, unconjugated; also called 5H12 VH5 (C33D*)/Vκ4) VH: QVQLVQSGAEVKKPGASVKVSCKASGYSFTDYDINWVRQAPGQGLEWMGWIYPGSGNTRYSERFKGRVTITRDTSASTAYMELSSLRSEDTAVYYCAREDYYPYHGMDYWGQGTLVTVSS VL: DIVMTQSPDSLAVSLGERATINCRASESVDGYDNSFMHWYQQKPGQPPKLLIFRASNLESGVPDRFSGSGSGTDFTLTISSLQAEDVAVYYCQQSSEDPWTFGQGTKLEIKR", "pEC50": 9.20}
{"BINDER": "humanized anti-TfR Fab 5H12 (VH5-C33Y/Vk3) (Fab, V domains shown, unconjugated; also called 5H12 VH5 (C33Y*)/Vκ3) VH: QVQLVQSGAEVKKPGASVKVSCKASGYSFTDYYINWVRQAPGQGLEWMGWIYPGSGNTRYSERFKGRVTITRDTSASTAYMELSSLRSEDTAVYYCAREDYYPYHGMDYWGQGTLVTVSS VL: DIVLTQSPDSLAVSLGERATINCRASESVDGYDNSFMHWYQQKPGQPPKLLIFRASNLESGVPDRFSGSGSRTDFTLTISSLQAEDVAVYYCQQSSEDPWTFGQGTKLEIKR", "pEC50": 9.16}
{"BINDER": "humanized anti-TfR Fab 3M12 (VH3/Vk3) (Fab, V domains shown, unconjugated; also called 3M12 VH3/Vκ3) VH: QVQLQESGPGLVKPSQTLSLTCSVTGYSITSGYYWNWIRQPPGKGLEWMGYITFDGANNYNPSLKNRVSISRDTSKNQFSLKLSSVTAEDTATYYCTRSSYDYDVLDYWGQGTTVTVSS VL: DIQMTQSPSSLSASVGDRVTITCRASQDISNFLNWYQQKPGQPVKLLIYYTSRLHSGVPSRFSGSGSGTDFTLTISSLQPEDFATYYCQQGHTLPYTFGQGTKLEIKR", "pEC50": 7.81}
{"BINDER": "humanized anti-TfR Fab 5H12 (VH5-C33Y/Vk4) (Fab, V domains shown, unconjugated; also called 5H12 VH5 (C33Y*)/Vκ4) VH: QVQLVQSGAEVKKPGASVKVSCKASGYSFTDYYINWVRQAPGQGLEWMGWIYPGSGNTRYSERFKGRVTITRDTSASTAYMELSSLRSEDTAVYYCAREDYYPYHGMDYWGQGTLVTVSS VL: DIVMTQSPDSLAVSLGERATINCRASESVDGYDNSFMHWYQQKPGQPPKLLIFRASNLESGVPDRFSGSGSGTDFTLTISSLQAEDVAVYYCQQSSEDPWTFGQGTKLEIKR", "pEC50": 9.59}
{"BINDER": "humanized anti-TfR Fab 3A4 (VH3/Vk4) (Fab, V domains shown, unconjugated; also called 3A4 VH3 /Vκ4) VH: EVQLVQSGSELKKPGASVKVSCTASGFNIKDDYMYWVRQPPGKGLEWIGWIDPENGDTEYASKFQDRVTVTADTSTNTAYMELSSLRSEDTAVYYCTLWLRRGLDYWGQGTLVTVSS VL: DIVMTQSPLSLPVTPGEPASISCRSSKSLLHSNGYTYLFWFQQRPGQSPRLLIYRMSNLASGVPDRFSGSGSGTDFTLKISRVEAEDVGVYYCMQHLEYPFTFGGGTKVEIKR", "pEC50": 6.06}

I have this binder here, humanized anti-TfR Fab 3M12 (VH3/Vk2) (Fab, V domains shown, unconjugated; also called 3M12 VH3/Vκ2) VH: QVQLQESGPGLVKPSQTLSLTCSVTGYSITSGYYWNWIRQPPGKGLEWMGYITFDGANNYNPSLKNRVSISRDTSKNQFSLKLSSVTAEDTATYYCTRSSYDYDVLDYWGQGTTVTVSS VL: DIQMTQSPSSLSASVGDRVTITCRASQDISNFLNWYQQKPGQPVKLLIYYTSRLHSGVPSRFSGSGSGTDFTLTISSLQPEDFATYFCQQGHTLPYTFGQGTKLEIKR , and I need its recorded pEC50. 7.71

Query humanized anti-TfR Fab 3M12 (VH4/Vk2) (Fab, V domains shown, unconjugated; also called 3M12 VH4/Vκ2) VH: QVQLQESGPGLVKPSQTLSLTCTVTGYSITSGYYWNWIRQPPGKGLEWIGYITFDGANNYNPSLKNRVSISRDTSKNQFSLKLSSVTAEDTATYYCTRSSYDYDVLDYWGQGTTVTVSS VL: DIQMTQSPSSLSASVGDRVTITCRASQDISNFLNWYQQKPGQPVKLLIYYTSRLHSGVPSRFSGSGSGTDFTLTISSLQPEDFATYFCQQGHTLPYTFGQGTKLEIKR next 8.30
